Examples of molecules with documented composite z-score follow.
Target: Carbonic anhydrase 2 (Homo sapiens) (UniProt P00918)
Assay: compounds binding carbonic anhydrase 2 – biochemical, small-molecule microarray, Alexa647-labelled CAII, profiling panel (AID 1122)
Details: CAII-A647 binding fluorescence, higher = more signal
Please give only the number in your answer, with no unit.

CCOC(=O)C1=CC[C@@H](c2ccccc2)N(S(=O)(=O)c2ccc(C)cc2)[C@H]1c1ccc(C#N)cc1
0.356
CC(C)(C)OC(=O)CC[C@@]1(C(N)=O)N=C(c2ccc(OCCCO)cc2)O[C@@H]1c1ccccc1N=[N+]=[N-]
0.616

Next up:
Recorded composite z-score of COCCOC(=O)N1C(=O)[C@@]2(c3cc(C#CC4=CCCCC4)ccc31)[C@H](C(=O)N1CCN(c3ncccn3)CC1)[C@H]1C(=O)O[C@H](c3ccccc3)[C@H](c3ccccc3)N1[C@@H]2c1ccc(OCCO)cc1 , please. 0.278
